pIC50 for assorted compounds
- assay.system: Carnitine O-palmitoyltransferase 1, liver isoform (Homo sapiens, UniProt P50416)
- Sequence (P50416 whole entry, canonical isoform): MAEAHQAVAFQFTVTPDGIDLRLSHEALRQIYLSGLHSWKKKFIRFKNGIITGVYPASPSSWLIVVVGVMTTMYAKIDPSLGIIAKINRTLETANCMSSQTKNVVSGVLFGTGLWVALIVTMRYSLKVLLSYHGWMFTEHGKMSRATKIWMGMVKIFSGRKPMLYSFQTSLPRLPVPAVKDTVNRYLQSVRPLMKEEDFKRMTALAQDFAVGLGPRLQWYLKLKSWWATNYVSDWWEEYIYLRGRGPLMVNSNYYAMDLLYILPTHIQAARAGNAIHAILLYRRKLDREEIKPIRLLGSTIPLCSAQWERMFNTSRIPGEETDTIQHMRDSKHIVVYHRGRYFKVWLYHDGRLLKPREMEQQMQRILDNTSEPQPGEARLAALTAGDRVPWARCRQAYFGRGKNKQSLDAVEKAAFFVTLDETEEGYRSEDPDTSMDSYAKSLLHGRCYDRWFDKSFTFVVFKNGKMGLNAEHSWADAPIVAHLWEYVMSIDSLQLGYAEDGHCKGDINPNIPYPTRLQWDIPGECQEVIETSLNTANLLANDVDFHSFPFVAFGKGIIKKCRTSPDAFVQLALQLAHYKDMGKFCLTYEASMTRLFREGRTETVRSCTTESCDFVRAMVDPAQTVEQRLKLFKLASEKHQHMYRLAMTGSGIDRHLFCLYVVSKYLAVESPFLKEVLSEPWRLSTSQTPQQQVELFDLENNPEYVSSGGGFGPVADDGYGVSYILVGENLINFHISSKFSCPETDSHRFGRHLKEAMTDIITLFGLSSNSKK
- method: SUPPLEMENTARY: Inhibition of Carnitine palmitoyltransferase 1, liver isoform
# pIC50: negative log10 of molar concentration; output just the value

// worked examples, pIC50 included
Prompt: Name the reported pIC50 value associated with the compound COc1ccc(Cl)cc1S(=O)(=O)N(C)c1cc(C(=O)Nc2nc(CC(=O)O)cs2)cc2c1OCO2
Response: 7.29

Prompt: Name the reported pIC50 value associated with the compound COc1ccc(Cl)cc1S(=O)(=O)N1CCSc2ccc(C(=O)Nc3ccc(C(=O)O)c(F)c3)cc21
Response: 7.08

Prompt: Name the reported pIC50 value associated with the compound CN1CCN(C(=O)COc2ccccc2)[C@@H](c2nc(-c3ccc4[nH]nnc4c3)no2)C1
Response: 7.61

Okay, now this compound:
Prompt: Name the reported pIC50 value associated with the compound COc1ccc(Cl)cc1S(=O)(=O)N1CCc2c(C)cc(C(=O)Nc3ccc(C(=O)O)cc3)cc21
Response: 7.11
